Tested on: HEK-293T
test_method_notes: Incucyte cell viability with HEK293T; note: filed as whole numbers so only -1 and 0 and 1 occur
Format: toxicity, cell-based
cond: human, 12 h, 10 µM, compound concentration 10 uM, replicate number 1, timepoint 12 hours
Known Growth Rate of a selection of compounds
The answer should be written as a number, with no unit following it.

[
  {
    "compound": "CC(C)OC(=O)C1=CN(C(=O)c2ccc(F)c(F)c2)CC(C)(C)c2c1[nH]c1ccccc21 [TUROFEXORATE ISOPROPYL]",
    "Growth Rate": 0
  }
]

Q: Hello, please tell me recorded Growth Rate for this one: N[C@@H](Cc1cc(I)c(Oc2ccc(O)c(I)c2)c(I)c1)C(=O)O
Result: 1

Q: Hello, please tell me recorded Growth Rate for this one: COc1cc(N2CCC(N3CCN(C)CC3)CC2)ccc1Nc1ncnc(Nc2ccccc2S(=O)(=O)C(C)C)n1
Result: 0

Q: Hello, please tell me recorded Growth Rate for this one: CC(=O)c1c(NS(C)(=O)=O)c2cc(-c3ccc(Cl)cc3)c(-c3ccc(Cl)cc3Cl)nc2n(C)c1=O
Result: 0

Q: Hello, please tell me recorded Growth Rate for this one: COc1cc(N2CCC(N3CCN(C)CC3)CC2)ccc1Nc1ncc(Cl)c(Nc2ccccc2P(C)(C)=O)n1
Result: 0

Q: Hello, please tell me recorded Growth Rate for this one: CC(=O)N1CCC(c2ccc(C(=O)NC(=N)N)cc2C(F)(F)F)CC1
Result: 1

---

Test system: HEK-293T
test_method_notes: Multiplex assay against HEK293T
Format: toxicity, cell-based
cond: human, 12 h, 10 µM, compound concentration 10 uM, replicate 1
Definition: the class of an entry is the range in b0: < 10%; b1: ≥ 10% and < 60%; b2: ≥ 60% that contains its Population Mitochondria Different-Phenotype (%).

As a guide, the following entries are already answered.
[
  {
    "molecule": "Cc1ccc2nc(NCCN)c3ncc(C)n3c2c1.O=C(O)C(F)(F)F.O=C(O)C(F)(F)F",
    "qualitative_label": "b1"
  },
  {
    "molecule": "CCN1CCN(Cc2ccc(Nc3ncc(F)c(-c4cc(F)c5nc(C)n(C(C)C)c5c4)n3)nc2)CC1.CS(=O)(=O)O",
    "qualitative_label": "b1"
  },
  {
    "molecule": "CCOc1cc2ncc(C#N)c(Nc3ccc(OCc4ccccn4)c(Cl)c3)c2cc1NC(=O)/C=C/CN(C)C",
    "qualitative_label": "b1"
  },
  {
    "molecule": "CN1CCN(C(=O)C(C)(C)c2ccc(C(=O)Nc3cn4cc(-c5cc(C(C)(C)C)cc(C(C)(C)C)c5)ccc4n3)cc2)CC1",
    "qualitative_label": "b1"
  },
  {
    "molecule": "COc1cc2ncnc(Nc3ccc(F)c(Cl)c3)c2cc1NC(=O)/C=C/CN1CCCCC1 [DACOMITINIB ANHYDROUS]",
    "qualitative_label": "b0"
  }
]

Q: Where would CN(C)C(=O)C(CCN1CCC(O)(c2ccc(Cl)cc2)CC1)(c1ccccc1)c1ccccc1.Cl [LOPERAMIDE HYDROCHLORIDE] land among the classes by reported Population Mitochondria Different-Phenotype (%)?
Result: b2

Q: Where would Cn1nc(C(F)(F)F)cc1-c1cnc(N2CCc3cc(S(=O)(=O)Nc4c(F)cc(Cl)cc4F)cc(N4CCCC4=O)c32)nc1 land among the classes by reported Population Mitochondria Different-Phenotype (%)?
Result: b0

Q: Where would Cl.O=c1c2cccn2c2ccccc2n1CCCN1CCC(c2ccc(Cl)cc2)CC1 land among the classes by reported Population Mitochondria Different-Phenotype (%)?
Result: b2

Q: Where would O=C(Nc1ccc(Cl)cc1)Nc1cccc(-c2cccc(N3CCCC3)n2)c1 land among the classes by reported Population Mitochondria Different-Phenotype (%)?
Result: b0

Q: Where would COc1cccc2cc(-c3nc([C@H]4CC[C@H](C(=O)O)CC4)n4ncnc(N)c34)[nH]c12 land among the classes by reported Population Mitochondria Different-Phenotype (%)?
Result: b0
